Read-out: Interleukin 6 Receptor (IL6R), IL6R (gene 3570)
Assay: LTEA_HepaRG_IL6R: Life Technologies and Expression Analysis (LTEA) Assay for Interleukin 6 Receptor (IL6R) using HepaRG (AID 2283510)
Conditions: mRNA level, 48 h; actives raise or lower the signal
Activity calls are given as the source filed them. How the source made its calls: active means hit-call score of the fitted dose curve at least 0.9, where 1 is the maximum; inactive means score below 0.9.
Field 'call' accepts class 1 = active, class 0 = inactive

input: Returns: the outcome recorded for CC1(c2ccc(Oc3ccccc3)cc2)OC(=O)N(Nc2ccccc2)C1=O (stereo not given) in this assay.
output: class 0

input: Returns: the outcome recorded for CCOCN(C(=O)CCl)c1c(C)cccc1CC in this assay.
output: class 1

input: Returns: the outcome recorded for CNC(=O)Oc1cccc(N=CN(C)C)c1 in this assay.
output: class 0

input: Returns: the outcome recorded for CC(C)N(C(=O)COc1nnc(C(F)(F)F)s1)c1ccc(F)cc1 in this assay.
output: class 0

input: Returns: the outcome recorded for O=S1OCC2C(CO1)C1(Cl)C(Cl)=C(Cl)C2(Cl)C1(Cl)Cl (stereo not given) in this assay.
output: class 1

input: Returns: the outcome recorded for CC1(C)C(C=C(Cl)Cl)C1C(=O)OC(C#N)c1ccc(F)c(Oc2ccccc2)c1 (stereo not given) in this assay.
output: class 0

input: Returns: the outcome recorded for COP(=S)(OC)Oc1ccc([N+](=O)[O-])cc1 in this assay.
output: class 0

input: Returns: the outcome recorded for CCOC1Oc2ccc(OS(C)(=O)=O)cc2C1(C)C (stereo not given) in this assay.
output: class 1

input: Returns: the outcome recorded for COP(=O)(OC)OC=C(Cl)Cl in this assay.
output: class 0

input: Returns: the outcome recorded for ClC1C(Cl)C(Cl)C(Cl)C(Cl)C1Cl (stereo not given) in this assay.
output: class 0

input: Returns: the outcome recorded for Cc1[nH]c(=O)n(C(C)(C)C)c(=O)c1Cl in this assay.
output: class 0

input: Returns: the outcome recorded for CNC(=O)CSP(=S)(OC)OC in this assay.
output: class 0

input: Returns: the outcome recorded for CC(C)OC(=O)Nc1cccc(Cl)c1 in this assay.
output: class 0

input: Returns: the outcome recorded for CC[C@H](C)[C@H]1O[C@]2(C=C[C@@H]1C)C[C@@H]1C[C@@H](C/C=C(\C)[C@@H](O[C@H]3C[C@H](OC)[C@@H](O[C@H]4C[C@H](OC)[C@@H](O)[C@H](C)O4)[C@H](C)O3)[C@@H](C)/C=C/C=C3\CO[C@@H]4[C@H](O)C(C)=C[C@@H](C(=O)O1)[C@]34O)O2 (tested in a mixture with another compound) in this assay.
output: class 1

input: Returns: the outcome recorded for CCc1ccc(C(=O)NN(C(=O)c2cc(C)cc(C)c2)C(C)(C)C)cc1 in this assay.
output: class 0

Source listed as PubChem BioAssay (EPA / NIEHS).
